assay: soluble fraction after stress (log2 fold change); higher = more stays soluble; pooled small domains, quantitative proteomics; conditions: stress: pH 4
Use MET when the recorded soluble fraction (log2) is no lower than -0.2; use NOT MET when it is lower.

Worked examples follow.
sequence_string=HMTYVSVSNYIGTNVDKAKGELESQGLVVLLEEQKTEDKSQDGMVLKQTIEGGTKVSSGSRITLIYGRYT cat=MET
sequence_string=HMVDPAFLAWQQKPENTWFGTDRRKTALAIAIAEEIRNDPANSNLVGAAFYARVAEETEETLN cat="NOT MET"
sequence_string=HMTKQRSIILDLLKANQDRHLTAEEMLELLNQNHTPVSKATLYRYLDMLVSQNAVRKFIIDDQPSAGYQYL cat=MET
sequence_string=HMGGAYATVKLSSSSSQLNVRASASTASRVVARLSHGFRVEVLGVSGDWVKIRALGVEGYVARAYLALEGE cat=MET

Does the sequence HMRMQRYYLTDMSEKGREALPGVLDEMGYAGRYTMSDNSIAINSNMIVLSKAIKRAEDIAHNE have recorded soluble fraction (log2) that is -0.2 or more?
MET

Does the sequence HMPQTNIYPNPAFDKLFVSNLENETNFKIMDLFGRTIINSKTKGEISISELKSGIYIIEINNFRQKFVK have recorded soluble fraction (log2) that is -0.2 or more?
NOT MET

Does the sequence HMVAREAYTTQNLTDVFSISRQAVEKRAKREGWQSVPRKGRGGGKLWVVSSMPAETRDLLASLLLRK have recorded soluble fraction (log2) that is -0.2 or more?
MET

* * *

Please go through the items and note down their soluble fraction (log2).
experiment: soluble fraction after stress (log2 fold change); higher = more stays soluble; pooled small domains, quantitative proteomics; conditions: stress: pH 4

Here are 4 sequences together with their reported answers.
sequence_string=HMSSKFKIVGEILSIKKSDILYIIEILSNNEVVKATAVEDEIKDLKIGDKILLSSKAFNPIVNK property_label="soluble fraction (log2)" reported_result=-1.09
sequence_string=HMTLAAATESREYLADLARRLDAADHGDKTRIKAEAAGLLGWSMATLHARLARDVGWTSGRK property_label="soluble fraction (log2)" reported_result=-0.166
sequence_string=HMSFYSVVISQDGSMLVAENRNEIYSNEELLELASEVNEKTGTIGTIGSLMYYKADKGGYTLITFLDNS property_label="soluble fraction (log2)" reported_result=-2.05
sequence_string=HMPEPAPALPAKTRVSIRRETGGIIWHEGAWTISPPIRAYDGRWYVAVTTARKGIEFVPVSSVIRS property_label="soluble fraction (log2)" reported_result=-0.0262

The following sequences each have a reported value; give each one's soluble fraction (log2).
1. HMKKILITGNSGYIGSHLSKMLENDYEVHGLDIRQPQHPVAKFYEQDINRPINIEEEYDAVIHLAALV
2. HMEVKSGFVHLTGAVKSPGVYPISIGMRLFEVIALAGGFTAKADRESVNLARTVTDGEQIIVSGSG
3. HMSLRGEKTYDEAHQKLIKSAVELFKNPLVSPEKITVSQIAKHAGVSVATAYNHFPENKLDIYGSIF
4. HMGTQIKSPMPGTILDVRVNVGDTVKEGDILMILEAMKMENEILAPVSGKVAAIQVSKGTAVNSGDLLAVL
5. HMSVDIWTGAQTGNIEAVKQHLADGVDVNSKSDIGRTALDVAIAFKQPLITDLLRKHGGKTRDELKAAE
6. HMKALEGMRTVFTLADLATEPVTVEITVLEAFKYTTTLEIVQRPVLREWMTNPSMLIRVYHDASTAE
7. HMKPGYVIQVNGTVTKIQSGLVYVKTPAAQYTLMRKYAPADAAVGDRVSLWINEEGMVIDVHGK
8. HMPDAIPLETIIKNVNVLAGFLINSKTFTEDDIVMAYNNIMKIKGDHTDEKTLTNDVYTLLTEMN

[-0.104, -0.778, -0.0613, -0.404, -0.397, -0.138, -0.671, -1.22]
